Tested on: Panel NCI-60 (60 carcinoma cell lines)
EXPERIMENTAL_PROTOCOL: In vitro mean of concentrations that inhibits cell growth across 60 cell lines of the NCI panel after incubation for 48 hr at 37 degree C was measured using SRB assay
Type: functional
CONDITIONS_USED: Homo sapiens
Please go through the items and note down their GI50.

Value sought: GI50, system Panel NCI-60 (60 carcinoma cell lines), item COc1cc2c(cc1OC)C(=O)N1C=C(C#Cc3ccccc3)C[C@H]1C=N2 . Result: < 10 nM

Value sought: GI50, system Panel NCI-60 (60 carcinoma cell lines), item COc1cc2c(cc1OC)C(=O)N1C=C(c3ccco3)C[C@H]1C=N2 . Result: < 10 nM

Value sought: GI50, system Panel NCI-60 (60 carcinoma cell lines), item COc1cc2c(cc1OC)C(=O)N1C=C(c3ccccc3)C[C@H]1C=N2 . Result: < 10 nM
